Values compiled from patent US9765092B2.

# TARGET ENTITY: human TPH1 (Homo sapiens (Human))
# Sequence (P17752 whole entry): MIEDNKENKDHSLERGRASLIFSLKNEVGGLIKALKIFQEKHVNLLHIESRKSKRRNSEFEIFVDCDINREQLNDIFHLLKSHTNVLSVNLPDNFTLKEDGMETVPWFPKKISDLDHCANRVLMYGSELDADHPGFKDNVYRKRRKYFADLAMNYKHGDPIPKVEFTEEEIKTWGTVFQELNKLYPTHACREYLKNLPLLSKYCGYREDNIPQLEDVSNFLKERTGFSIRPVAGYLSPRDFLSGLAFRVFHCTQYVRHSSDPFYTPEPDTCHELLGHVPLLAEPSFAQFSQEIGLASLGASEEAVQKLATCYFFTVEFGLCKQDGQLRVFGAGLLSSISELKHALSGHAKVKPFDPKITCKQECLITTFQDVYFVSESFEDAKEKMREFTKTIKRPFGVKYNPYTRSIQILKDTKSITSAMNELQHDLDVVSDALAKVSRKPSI
# ASSAY SUMMARY: Biochemical in vitro assay using fluorescence readout (TPH1 inhibition)
# CONDITION LABEL: human TPH1, fluorescence readout
pIC50: −log10 of the molar value.
REPORTED METRIC: pIC50

>>> reading("CNC(=O)c1ccc(OCC(=O)N2CCc3nc4sc(C)nn4c3C2c2sc(C(=O)N(C)C)cc2F)c(Cl)n1 (stereo not shown) [Example 1.24.10]")
7.70
>>> reading("O=C(COc1ccc(Cl)cc1Cl)N1CCc2nc3sccn3c2C1c1cc2cccnc2s1 (stereo not shown) [Example 6.14.1]")
7.60
>>> reading("Cc1nn2c3c(nc2s1)CCN(C(=O)COc1ccc(N2CCOCC2)nc1F)C3c1ncc(C2CC2)cc1F (stereo not shown) [Example 1.14.5]")
8.05
>>> reading("Cc1nn2c3c(nc2s1)CCN(C(=O)COc1ccc(C(=O)N(C)C)nc1Cl)C3c1ccc(F)cc1F (stereo not shown) [Example 1.55.1]")
7.72
>>> reading("CCc1nc(C)ccc1OCC(=O)N1CCc2nc3sccn3c2C1c1c(C)nn(C)c1C (stereo not shown) [Example 6.15.1]")
6.83
>>> reading("CCc1nc(NS(C)(=O)=O)ccc1OCC(=O)N1CCc2nc3sc(CF)nn3c2C1c1ncc(C)cc1F (stereo not shown) [Example 7.2.2]")
7.70
>>> reading("Cc1nn2c3c(nc2s1)CCN(C(=O)COc1ccc(NS(C)(=O)=O)nc1Cl)C3c1ccc(Cl)cc1F (stereo not shown) [Example 1.4.39]")
8.30

* * *

Quick list: pIC50 per entry.
# TARGET ENTITY: UniProt:P17752
# ASSAY SUMMARY: Biochemical in vitro assay using fluorescence readout (TPH1 inhibition)
# CONDITION LABEL: full length human TPH1, 40 μM L-tryptophan, 15° C., 60 minutes, fluorescence at 540 nm; mean if determined several times
# Experimental: Biochemical In Vitro Assay Using Fluorescence Readout To generate the enzyme, full length human TPH1 is cloned into the plasmid pET20b(+) (Novagen) and expressed in E. coli. […] The activity of TPH1 is determined by using a fluorescence assay. […] The amount of 5-hydroxy-L-tryptophan produced during the enzymatic reaction is determined by fluorescence readout. Fluorescence, as determined at 540 nm when excited at 300 nm wavelength, increases proportionally to the 5-hydroxy-L-tryptophan formed. […]
pIC50: −log10 of the molar value.
REPORTED METRIC: pIC50

>>> reading("Cc1nn2c3c(nc2s1)CCN(C(=O)COc1ccc(N2CCOCC2)nc1Cl)C3c1csc(CO)c1 (stereo not shown) [Example 1.45.1]")
7.48
>>> reading("Cc1nn2c3c(nc2s1)CCN(C(=O)COc1cccnc1Cl)C3c1cnc(N(C)C)s1 (stereo not shown) [Example 1.22.7]")
7.09
>>> reading("CNC(=O)c1ccc(OCC(=O)N2CCc3nc4sc(C)nn4c3C2c2ncc(C(=O)N(C)C)s2)c(Cl)n1 (stereo not shown) [Example 1.37.1]")
6.75
>>> reading("Cc1nn2c3c(nc2s1)CCN(C(=O)COc1ccc(N2CCOCC2)nc1Cl)C3c1ccc(CN(C)C)s1 (stereo not shown) [Example 1.36.1]")
6.42
>>> reading("CNC(=O)c1ccc(OCC(=O)N2CCc3nc4sc(C)nn4c3C2c2cc(C(=O)N(C)C)cs2)c(Cl)n1 (stereo not shown) [Example 1.9.6]")
7.00
>>> reading("COC(=O)CCS(=O)(=O)c1ccc(OCC(=O)N2CCc3nc4sc(C)nn4c3C2c2ccc(Cl)cc2F)c(Cl)n1 (stereo not shown) [Example 1.4.11]")
7.24
>>> reading("Cc1nn2c3c(nc2s1)CCN(C(=O)COc1ccc(C(=O)NC2CC2)nc1Cl)C3c1ccc(OCCO)cc1F (stereo not shown) [Example 1.84.1]")
7.85
